system.name: M1 receptor (Homo sapiens, UniProt P11229)
Sequence (P11229 1-460): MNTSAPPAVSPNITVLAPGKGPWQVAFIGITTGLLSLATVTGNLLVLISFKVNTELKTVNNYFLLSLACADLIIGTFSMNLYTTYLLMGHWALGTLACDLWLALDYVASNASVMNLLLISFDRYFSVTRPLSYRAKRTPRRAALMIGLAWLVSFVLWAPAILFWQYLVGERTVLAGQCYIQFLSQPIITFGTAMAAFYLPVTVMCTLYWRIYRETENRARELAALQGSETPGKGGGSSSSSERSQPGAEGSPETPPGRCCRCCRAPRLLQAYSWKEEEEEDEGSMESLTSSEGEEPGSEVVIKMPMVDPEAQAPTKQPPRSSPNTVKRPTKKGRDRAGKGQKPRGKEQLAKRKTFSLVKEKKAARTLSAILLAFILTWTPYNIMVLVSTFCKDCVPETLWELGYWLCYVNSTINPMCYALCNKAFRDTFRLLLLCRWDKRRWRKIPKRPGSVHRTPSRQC
test.details: DMR assay, antagonism of acetylcholine in CHO-K1 cells stably transfecting the M1 receptor
run.parameters: CHO-K1-M1 cells, DMR, acetylcholine 1 μM, 1 h pretreatment, time point 5 min
Source text: The present invention relates to the antagonistic activity of the compound against the muscarinic receptor, which is primarily assessed by a cell-level dynamic mass redistribution (DMR) assay method. […]
The threshold is 300 nM. Values of IC50 beneath it are tagged Fulfilled; values meeting or exceeding it are tagged Not fulfilled.

// known answers, use as guide
{"columns": ["compound", "assigned.category"],
 "data": [
  ["CN1CCCCC1CC(c1ccccc1)c1ccccc1 (centres unmarked) [II-1, 2-(2,2-Diphenylethyl)-N-Methylpiperidine]", "Not fulfilled"],
  ["Cc1ccc(C(CC2CCCC[N+]2(C)C)c2cc(C)ccc2O)cc1 (centres unmarked) [I-15]", "Fulfilled"]
]}

Turning to the following compound.
Query :: Is 300 nM strictly greater than the compound's reported IC50? compound: Cc1ccc(O)c(C(CC2CCCC[N+]2(C)C)c2ccccc2)c1.[Br-] (centres unmarked) [I-4a-1-Br]
Result :: Fulfilled

###

system.name: M3 receptor (Homo sapiens)
Construct: HT-29 cell model endogenously highly expressing the M3 receptor; endogenous in cells
Sequence (P20309 whole entry): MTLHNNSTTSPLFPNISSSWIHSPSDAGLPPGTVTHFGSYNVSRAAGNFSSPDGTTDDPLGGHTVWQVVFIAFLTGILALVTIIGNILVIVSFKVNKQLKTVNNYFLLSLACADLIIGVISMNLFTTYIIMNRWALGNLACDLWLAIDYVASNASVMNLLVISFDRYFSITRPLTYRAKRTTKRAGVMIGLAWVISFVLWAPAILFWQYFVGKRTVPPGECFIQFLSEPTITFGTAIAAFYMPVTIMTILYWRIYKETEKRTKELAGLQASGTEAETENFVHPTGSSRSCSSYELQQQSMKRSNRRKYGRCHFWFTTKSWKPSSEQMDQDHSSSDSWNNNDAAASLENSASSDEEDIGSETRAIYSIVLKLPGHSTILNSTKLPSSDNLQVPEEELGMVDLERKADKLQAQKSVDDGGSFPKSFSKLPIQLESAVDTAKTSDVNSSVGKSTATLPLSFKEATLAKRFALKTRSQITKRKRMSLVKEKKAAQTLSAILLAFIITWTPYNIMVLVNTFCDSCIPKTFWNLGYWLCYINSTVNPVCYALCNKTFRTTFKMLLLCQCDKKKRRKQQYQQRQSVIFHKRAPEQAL
test.details: DMR assay, antagonism of acetylcholine in HT-29 cells endogenously expressing the M3 receptor
run.parameters: HT-29 cells, DMR, acetylcholine 16 μM, 1 h pretreatment, time point 30 min
Note to self: class labels come from recorded IC50, ranges listed here: label 0 (below 0.04 µM), label 1 (0.04 µM to below 0.1 µM), label 2 (0.1 µM or more)

// known answers, use as guide
{"columns": ["compound", "system.name", "assigned.category"],
 "data": [
  ["Cc1ccc(O)c(C(CC2CCCN2C)c2ccccc2)c1 (stereo not drawn) [II-19]", "M3 receptor (Homo sapiens)", "label 2"],
  ["Cc1ccc(O)c(C(CC2CCCC[N+]2(C)C)c2ccccc2)c1 (single isomer, unassigned) [I-4a-Br]", "M3 receptor (Homo sapiens)", "label 0"],
  ["CN1CCCCC1CC(c1ccccc1O)c1ccccc1O (single isomer, unassigned) [II-3-2]", "M3 receptor (Homo sapiens)", "label 1"],
  ["CCc1ccc(O)c(C(CC2CCCC[N+]2(C)C)c2ccccc2)c1 (stereo not drawn) [I-5-I]", "M3 receptor (Homo sapiens)", "label 0"],
  ["C[N+]1(C)CCCCC1CC(c1ccccc1)c1cc(F)ccc1O (single isomer, unassigned) [I-10a-2]", "M3 receptor (Homo sapiens)", "label 1"]
]}

Query :: Hello team, could you let me know which band the following compound falls into: Cc1ccc(O)c(C(CC2CCCC[N+]2(C)C)c2ccccc2)c1 (stereo not drawn) [I-4B-2-Br]
Result :: label 2

Query :: Hello team, could you let me know which band the following compound falls into: Cc1ccc(OC(=O)C(C)C)c(C(CC2CCCCN2C)c2ccccc2)c1 (stereo not drawn) [II-23]
Result :: label 2

Query :: Hello team, could you let me know which band the following compound falls into: Cc1ccc(O)c(C(CC2CCCC[N+]2(C)C)c2ccccc2)c1 (stereo not drawn) [I-4b-1-Br]
Result :: label 0

Query :: Hello team, could you let me know which band the following compound falls into: CN1CCCCC1CC(c1ccccc1)c1cc(F)ccc1O (single isomer, unassigned) [II-10b]
Result :: label 2

###

system.name: M1 receptor (Homo sapiens, UniProt P11229)
test.details: DMR assay, antagonism of acetylcholine in CHO-K1 cells stably transfecting the M1 receptor
run.parameters: CHO-K1-M1 cells, DMR, acetylcholine 1 μM, 1 h pretreatment, time point 5 min
The threshold is 70 nM. Values of IC50 beneath it are tagged Criterion met; values meeting or exceeding it are tagged Criterion not met.

{"columns": ["compound", "system.name", "assigned.category"],
 "data": [
  ["CN1CCCCC1CC(c1ccccc1)c1cc(O)ccc1O (stereo not shown) [II-11]", "M1 receptor (Homo sapiens, UniProt P11229)", "Criterion not met"]
]}

Query :: Is 70 nM strictly greater than the compound's reported IC50? compound: CCc1ccc(O)c(C(CC2CCCN2C)c2ccccc2)c1 (stereo not shown) [II-20]
Result :: Criterion met

Query :: Is 70 nM strictly greater than the compound's reported IC50? compound: Cc1ccc(OC(=O)C(C)C)c(C(CC2CCCCN2C)c2ccccc2)c1 (stereo not shown) [II-23]
Result :: Criterion not met

Query :: Is 70 nM strictly greater than the compound's reported IC50? compound: C[N+]1(C)CCCCC1CC(c1ccccc1O)c1ccccc1O.[Br-] (stereo not shown) [I-3-2-Br]
Result :: Criterion met

Query :: Is 70 nM strictly greater than the compound's reported IC50? compound: Cc1ccc(O)c(C(CC2CCCC[N+]2(C)C)c2ccccc2)c1 (stereo not shown) [I-4B-2-Br]
Result :: Criterion not met

Query :: Is 70 nM strictly greater than the compound's reported IC50? compound: C[N+]1(C)CCCCC1CC(c1ccccc1)c1cc(F)ccc1O (single isomer, unassigned) [I-10b]
Result :: Criterion met

Query :: Is 70 nM strictly greater than the compound's reported IC50? compound: Cc1ccc(C(CC2CCCCN2C)c2cc(C)ccc2O)cc1 (stereo not shown) [II-15]
Result :: Criterion met

Query :: Is 70 nM strictly greater than the compound's reported IC50? compound: C[N+]1(C)CCCCC1CC(c1ccccc1)c1ccc(F)cc1O (stereo not shown) [I-8]
Result :: Criterion not met

Query :: Is 70 nM strictly greater than the compound's reported IC50? compound: Cc1ccc(O)c(C(CC2CCCCN2C)c2ccc(Cl)cc2)c1 (stereo not shown) [II-14]
Result :: Criterion not met

Query :: Is 70 nM strictly greater than the compound's reported IC50? compound: Cc1ccc(O)c(C(CC2CCC[N+]2(C)C)c2ccccc2)c1 (stereo not shown) [I-19]
Result :: Criterion met

###

IC50 values by entry
system.name: M3 receptor (Homo sapiens)
Construct: HT-29 cell model endogenously highly expressing the M3 receptor; endogenous in cells
test.details: DMR assay, antagonism of acetylcholine in HT-29 cells endogenously expressing the M3 receptor
run.parameters: HT-29 cells, DMR, acetylcholine 16 μM, 1 h pretreatment, time point 30 min
Response body: numeric value in µM, unit text excluded.

{"columns": ["compound", "system.name", "IC50 [µM]"],
 "data": [
  ["CN1CCCCC1CC(c1ccccc1)c1cc(C(F)(F)F)ccc1O (stereo not drawn) [II-13]", "M3 receptor (Homo sapiens)", 0.249],
  ["Cc1ccc(O)c(C(CC2CCCC[N+]2(C)C)c2ccccc2)c1 (stereo not drawn) [I-4a-I]", "M3 receptor (Homo sapiens)", 0.0093],
  ["CCCc1ccc(O)c(C(CC2CCCC[N+]2(C)C)c2ccccc2)c1 (stereo not drawn) [I-6]", "M3 receptor (Homo sapiens)", 0.0203]
]}

In plain terms, CN1CCCCC1CC(c1ccccc1O)c1ccccc1O (single isomer, unassigned) [II-3-1] has a documented IC50 of 0.0154

In plain terms, C[N+]1(C)CCCCC1CC(c1ccccc1)c1ccccc1O (stereo not drawn) [I-2a-I] has a documented IC50 of 0.0256

###

system.name: M3 receptor (Homo sapiens)
Construct: HT-29 cell model endogenously highly expressing the M3 receptor; endogenous in cells
test.details: DMR assay, antagonism of acetylcholine in HT-29 cells endogenously expressing the M3 receptor
run.parameters: HT-29 cells, DMR, acetylcholine 16 μM, 1 h pretreatment, time point 30 min
readout.label: log10 IC50 (log10 of the value in nM)
Recorded IC50 (log10, nM)

Record excerpt, results attached:
{"columns": ["molecule", "log10 IC50"],
 "data": [
  ["Cc1ccc(O)c(C(CC2CCCCN2C)c2ccsc2)c1 (stereo not shown)", 1.32],
  ["Cc1ccc(O)c(C(CC2CCCC[N+]2(C)C)c2ccccc2)c1.[Br-] (stereo not shown)", 1.59]
]}

In plain terms, CCc1ccc(O)c(C(CC2CCCC[N+]2(C)C)c2ccccc2)c1 (stereo not shown) [I-5-Br] has a documented log10 IC50 of 1.02

In plain terms, Cc1ccc(S(=O)(=O)Oc2ccc(C)cc2C(CC2CCCCN2C)c2ccccc2)cc1 (stereo not shown) has a documented log10 IC50 of 3.42

In plain terms, C[N+]1(C)CCCCC1CC(c1ccccc1O)c1ccccc1O.[Br-] (stereo not shown) [I-3-2-Br] has a documented log10 IC50 of 1.04

In plain terms, COc1ccc(O)c(C(CC2CCCC[N+]2(C)C)c2ccccc2)c1 (stereo not shown) has a documented log10 IC50 of 2.20

In plain terms, C[N+]1(C)CCCCC1CC(c1ccccc1)c1ccccc1O.[Br-] (stereo not shown) has a documented log10 IC50 of 0.76
